Reported IC50 is given for each of the following compounds.
Molecular target: JAK3 (Homo sapiens, UniProt P52333)
Sequence (P52333 1-1124): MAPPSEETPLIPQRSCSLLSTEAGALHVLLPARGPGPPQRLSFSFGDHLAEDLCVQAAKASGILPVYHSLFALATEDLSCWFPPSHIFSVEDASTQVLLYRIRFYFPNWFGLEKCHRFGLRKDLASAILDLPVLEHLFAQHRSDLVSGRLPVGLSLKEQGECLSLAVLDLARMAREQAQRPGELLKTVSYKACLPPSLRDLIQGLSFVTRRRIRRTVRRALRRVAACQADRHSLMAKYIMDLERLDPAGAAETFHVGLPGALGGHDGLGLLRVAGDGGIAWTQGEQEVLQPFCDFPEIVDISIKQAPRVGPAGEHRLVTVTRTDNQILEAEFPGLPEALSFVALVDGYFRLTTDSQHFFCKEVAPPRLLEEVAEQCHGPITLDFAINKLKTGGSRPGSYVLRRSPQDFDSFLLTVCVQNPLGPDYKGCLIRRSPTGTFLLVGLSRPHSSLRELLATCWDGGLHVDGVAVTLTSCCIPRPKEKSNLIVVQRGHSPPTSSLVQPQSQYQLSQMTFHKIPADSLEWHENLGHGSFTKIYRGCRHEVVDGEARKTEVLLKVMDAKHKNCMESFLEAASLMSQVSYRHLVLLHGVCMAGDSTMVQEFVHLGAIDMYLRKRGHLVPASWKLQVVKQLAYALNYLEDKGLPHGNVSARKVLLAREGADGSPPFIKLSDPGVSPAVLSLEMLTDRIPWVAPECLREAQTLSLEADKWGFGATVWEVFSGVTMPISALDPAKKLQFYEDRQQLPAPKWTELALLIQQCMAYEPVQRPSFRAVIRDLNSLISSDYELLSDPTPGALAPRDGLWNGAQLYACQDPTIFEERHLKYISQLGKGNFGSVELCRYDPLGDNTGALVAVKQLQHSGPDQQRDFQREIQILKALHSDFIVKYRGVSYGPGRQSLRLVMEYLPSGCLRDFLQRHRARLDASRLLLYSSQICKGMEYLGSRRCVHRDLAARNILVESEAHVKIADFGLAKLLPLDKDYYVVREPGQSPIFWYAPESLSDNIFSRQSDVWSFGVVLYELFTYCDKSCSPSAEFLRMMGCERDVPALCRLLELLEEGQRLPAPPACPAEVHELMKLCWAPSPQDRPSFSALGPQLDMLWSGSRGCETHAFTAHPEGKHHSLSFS
Test: Lance Ultra Kinase Assay, recombinant JAK3
Settings: 5 mM ATP

Worked examples, 3 compounds total:
# Compound, Value Observed
rows = [
    ("COC[C@H](C(=O)Nc1cccc2c(-c3nc(Nc4ccc(C(C)O)nc4)ncc3F)c[nH]c12)N1CCN(C)CC1 (single isomer, unassigned; isomer 2) [Example 9]", "9.95 µM"),
    ("COC[C@H](C(=O)Nc1cccc2c(-c3nc(Nc4ccc5ncsc5c4)ncc3F)c[nH]c12)N1CCN(C)CC1", "> 10 µM"),
    ("COC[C@H](C(=O)Nc1cccc2c(-c3nc(Nc4ccnc(C(=O)OC)c4)ncc3F)c[nH]c12)N1CCN(C)CC1", "> 10 µM"),
]

Consider now this further compound.
In: What value of IC50 has been recorded for this entry: COC[C@H](C(=O)Nc1cccc2c(-c3nc(Nc4ccc(C(C)O)nc4)ncc3F)c[nH]c12)N1CCN(C)CC1 (single isomer, unassigned; isomer 1) [Example 29]
Out: > 10 µM

----------
Target: JAK2 (Homo sapiens, UniProt O60674)
Sequence (O60674 whole entry): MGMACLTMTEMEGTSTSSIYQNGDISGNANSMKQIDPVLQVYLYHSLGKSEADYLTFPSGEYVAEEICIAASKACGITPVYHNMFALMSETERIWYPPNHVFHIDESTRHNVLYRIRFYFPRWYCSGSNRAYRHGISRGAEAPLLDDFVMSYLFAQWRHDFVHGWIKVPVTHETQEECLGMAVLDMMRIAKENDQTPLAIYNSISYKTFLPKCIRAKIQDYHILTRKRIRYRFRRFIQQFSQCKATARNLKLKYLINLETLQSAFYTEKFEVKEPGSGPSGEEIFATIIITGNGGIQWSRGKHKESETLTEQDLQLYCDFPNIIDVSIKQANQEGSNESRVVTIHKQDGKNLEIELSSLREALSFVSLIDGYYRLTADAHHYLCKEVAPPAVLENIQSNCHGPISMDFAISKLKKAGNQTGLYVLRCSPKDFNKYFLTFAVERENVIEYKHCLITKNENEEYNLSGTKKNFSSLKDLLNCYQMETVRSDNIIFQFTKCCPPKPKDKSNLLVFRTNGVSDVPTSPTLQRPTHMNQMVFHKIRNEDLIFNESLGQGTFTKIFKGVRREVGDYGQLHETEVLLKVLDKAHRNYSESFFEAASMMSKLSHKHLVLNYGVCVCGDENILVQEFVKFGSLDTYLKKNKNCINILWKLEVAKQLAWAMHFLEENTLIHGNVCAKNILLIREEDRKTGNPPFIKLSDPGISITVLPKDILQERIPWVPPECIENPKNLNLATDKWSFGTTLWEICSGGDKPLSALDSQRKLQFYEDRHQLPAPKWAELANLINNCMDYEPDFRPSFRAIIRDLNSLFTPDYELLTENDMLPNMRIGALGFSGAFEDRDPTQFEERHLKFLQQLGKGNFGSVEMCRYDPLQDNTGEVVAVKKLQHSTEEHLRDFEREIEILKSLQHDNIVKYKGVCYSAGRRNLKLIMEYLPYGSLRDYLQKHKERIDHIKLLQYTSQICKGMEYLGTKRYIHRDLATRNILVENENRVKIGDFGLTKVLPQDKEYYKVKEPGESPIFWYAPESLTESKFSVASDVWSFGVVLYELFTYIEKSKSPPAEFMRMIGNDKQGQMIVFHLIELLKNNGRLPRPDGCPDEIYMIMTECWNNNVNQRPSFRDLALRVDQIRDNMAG
Experiment: Lance Ultra Kinase Assay, recombinant JAK2
Settings: 5 mM ATP
pIC50: −log10 of the molar value.
Readout Kind: pIC50

Answered examples (4):
# Compound, Value Observed
data = [
    ("COC[C@H](C(=O)Nc1cccc2c(-c3nc(Nc4ccc(NC(C)=O)nc4)ncc3F)c[nH]c12)N1CCN(C)CC1", 6.42),
    ("COC[C@H](C(=O)Nc1cccc2c(-c3nc(Nc4ccc(OCc5ncco5)nc4)ncc3F)c[nH]c12)N1CCN(C)CC1", 6.66),
    ("COC[C@H](C(=O)Nc1cccc2c(-c3nc(Nc4cncc(O)c4)ncc3F)c[nH]c12)N1CCN(C)CC1", 6.79),
    ("COC[C@H](C(=O)Nc1cccc2c(-c3nc(Nc4cnn(C5CCOC5)c4)ncc3F)c[nH]c12)N1CCN(C)CC1 (single isomer, unassigned; isomer 2) [Example 33]", 6.96),
]

(A) COC[C@H](C(=O)Nc1cccc2c(-c3nc(Nc4ccc(OCCO)nc4)ncc3F)c[nH]c12)N1CCN(C)CC1
(B) COC[C@H](C(=O)Nc1cccc2c(-c3nc(Nc4ccc5c(c4)NC(=O)C5)ncc3F)c[nH]c12)N1CCN(C)CC1
In: Compare A and B by numeric pIC50 and name the larger one. Answer with the label corresponding to your selection.
Out: B

----------
Target: JAK3 (Homo sapiens)
Test: Lance Ultra Kinase Assay, recombinant JAK3
Conditions: 5 mM ATP
Examples of compounds with documented IC50 follow.

# Compound, IC50
data = [
    ("COC[C@H](C(=O)Nc1cccc2c(-c3nc(Nc4ccc(C(=O)OC)nc4)ncc3F)c[nH]c12)N1CCN(C)CC1 [Example 12]", "> 10 µM"),
    ("CNCCOc1ccc(Nc2ncc(F)c(-c3c[nH]c4c(NC(=O)[C@@H](COC)N5CCN(C)CC5)cccc34)n2)cn1 [Example 20]", "> 10 µM"),
    ("COC[C@H](C(=O)Nc1cccc2c(-c3nc(Nc4ccc5c(c4)CCOC5=O)ncc3F)c[nH]c12)N1CCN(C)CC1 [Example 42]", "5.26 µM"),
]

In: Sample COC[C@H](C(=O)Nc1cccc2c(-c3nc(Nc4ccc5ncoc5c4)ncc3F)c[nH]c12)N1CCN(C)CC1 [Example 50] — what was its IC50?
Out: > 10 µM

----------
Target: JAK3 (Homo sapiens)
Assay: Lance Ultra Kinase Assay, recombinant JAK3
Details: 5 mM ATP
pIC50: −log10 of the molar value.
Readout Kind: pIC50

# Line Notation, pIC50
data = [
    ("COC[C@H](C(=O)Nc1cccc2c(-c3nc(Nc4cnn(-c5cccc(CO)c5)c4)ncc3F)c[nH]c12)N1CCN(C)CC1", 5.17),
]

(A) COC[C@H](C(=O)Nc1cccc2c(-c3nc(Nc4ccc5cn[nH]c5c4)ncc3F)c[nH]c12)N1CCN(C)CC1
(B) CNC(=O)COc1cncc(Nc2ncc(F)c(-c3c[nH]c4c(NC(=O)[C@@H](COC)N5CCN(C)CC5)cccc34)n2)c1
In: Which record shows the lower pIC50: the first, A , or the second, B ? Give the label of your selection.
Out: A
(A: 5.05, B: 5.27)

----------
Listed here are molecules together with their documented pIC50.
Target: JAK3 (Homo sapiens)
Experiment: Lance Ultra Kinase Assay, recombinant JAK3
Settings: 5 mM ATP
pIC50: −log10 of the molar value.

# Line Notation, Readout Kind, Value Observed
data = [
    ("COC[C@H](C(=O)Nc1cccc2c(-c3nc(Nc4ccc5c(CO)ncn5c4)ncc3F)c[nH]c12)N1CCN(C)CC1", "pIC50", "< 5.00"),
    ("CCOC(=O)Cc1ccc(Nc2ncc(F)c(-c3c[nH]c4c(NC(=O)[C@@H](COC)N5CCN(C)CC5)cccc34)n2)cn1", "pIC50", "< 5.00"),
]

In: Hello, I am looking for reported pIC50 with JAK3 (Homo sapiens) for COC[C@H](C(=O)Nc1cccc2c(-c3nc(Nc4cncc(O)c4)ncc3F)c[nH]c12)N1CCN(C)CC1 . Could you help?
Out: < 5.00

In: State its pIC50 on JAK3 (Homo sapiens): COC[C@H](C(=O)Nc1cccc2c(-c3nc(Nc4ccc(OCCO)nc4)ncc3F)c[nH]c12)N1CCN(C)CC1
Out: < 5.00
